These entries and their values trace back to patent US20210299059A1.

experiment: Pharmacokinetics study, subcutaneous apixaban injection (Embodiment 4)
Format: in vivo, humans
settings: human, plasma, sc, 2.5 mg, plasma drug concentration of apixaban, subject C-02; Time 4 h; 1 mL of 2.5 mg/mL apixaban injection subcutaneously
property: concentration at 4 h (ng/mL)
Report the value in ng/mL with no unit label.

The measured concentration at 4 h associated with COc1ccc(-n2nc(C(N)=O)c3c2C(=O)N(c2ccc(N4CCCCC4=O)cc2)CC3)cc1 reads 44.8

* * *

experiment: Pharmacokinetics study, subcutaneous apixaban injection (Embodiment 4)
Assay type: in vivo, humans
settings: human, plasma, sc, 2.5 mg, plasma drug concentration of apixaban, subject C-02; Time 1 h; 1 mL of 2.5 mg/mL apixaban injection subcutaneously
property: concentration at 1 h (ng/mL)
Report the value in ng/mL with no unit label.

The measured concentration at 1 h associated with COc1ccc(-n2nc(C(N)=O)c3c2C(=O)N(c2ccc(N4CCCCC4=O)cc2)CC3)cc1 [apixaban, Apixaban] reads 23.8

* * *

experiment: Pharmacokinetics study, subcutaneous apixaban injection (Embodiment 4)
Type: in vivo, humans
settings: human, plasma, sc, 2.5 mg, plasma drug concentration of apixaban, subject C-02; Time 16 h; 1 mL of 2.5 mg/mL apixaban injection subcutaneously
property: concentration at 16 h
# number then unit; no other words

The measured concentration at 16 h associated with COc1ccc(-n2nc(C(N)=O)c3c2C(=O)N(c2ccc(N4CCCCC4=O)cc2)CC3)cc1 reads 19.2 ng/mL

* * *

experiment: Pharmacokinetics study, subcutaneous apixaban injection (Embodiment 4)
Format: in vivo, humans
settings: human, plasma, sc, 2.5 mg, plasma drug concentration of apixaban, subject C-01; Time 0.25 h; 1 mL of 2.5 mg/mL apixaban injection subcutaneously
property: concentration at 0.25 h (ng/mL)
Report the value in ng/mL with no unit label.

The measured concentration at 0.25 h associated with COc1ccc(-n2nc(C(N)=O)c3c2C(=O)N(c2ccc(N4CCCCC4=O)cc2)CC3)cc1 reads 8.08

* * *

experiment: Pharmacokinetics study, subcutaneous apixaban injection (Embodiment 4)
Format: in vivo, humans
settings: human, plasma, sc, 2.5 mg, plasma drug concentration of apixaban, subject C-03; Time 1 h; 1 mL of 2.5 mg/mL apixaban injection subcutaneously
property: concentration at 1 h (ng/mL)
Report the value in ng/mL with no unit label.

The measured concentration at 1 h associated with COc1ccc(-n2nc(C(N)=O)c3c2C(=O)N(c2ccc(N4CCCCC4=O)cc2)CC3)cc1 [apixaban, Apixaban] reads 21.7

* * *

experiment: Pharmacokinetics study, subcutaneous apixaban injection (Embodiment 4)
Type: in vivo, humans
settings: human, plasma, sc, 2.5 mg, plasma drug concentration of apixaban, subject C-03; Time 2 h; 1 mL of 2.5 mg/mL apixaban injection subcutaneously
property: concentration at 2 h (ng/mL)
Report the value in ng/mL with no unit label.

The measured concentration at 2 h associated with COc1ccc(-n2nc(C(N)=O)c3c2C(=O)N(c2ccc(N4CCCCC4=O)cc2)CC3)cc1 reads 31.9

* * *

experiment: Pharmacokinetics study, subcutaneous apixaban injection (Embodiment 4)
Type: in vivo, humans
settings: human, plasma, sc, 2.5 mg, plasma drug concentration of apixaban, subject C-01; Time 8 h; 1 mL of 2.5 mg/mL apixaban injection subcutaneously
property: concentration at 8 h
# number then unit; no other words

The measured concentration at 8 h associated with COc1ccc(-n2nc(C(N)=O)c3c2C(=O)N(c2ccc(N4CCCCC4=O)cc2)CC3)cc1 [apixaban, Apixaban] reads 46.7 ng/mL

* * *

experiment: Pharmacokinetics study, subcutaneous apixaban injection (Embodiment 4)
Type: in vivo, humans
settings: human, plasma, sc, 2.5 mg, plasma drug concentration of apixaban, subject C-03; Time 0.5 h; 1 mL of 2.5 mg/mL apixaban injection subcutaneously
property: concentration at 0.5 h (ng/mL)
Report the value in ng/mL with no unit label.

The measured concentration at 0.5 h associated with COc1ccc(-n2nc(C(N)=O)c3c2C(=O)N(c2ccc(N4CCCCC4=O)cc2)CC3)cc1 reads 10.9

* * *

experiment: Pharmacokinetics study, subcutaneous apixaban injection (Embodiment 4)
Format: in vivo, humans
settings: human, plasma, sc, 2.5 mg, plasma drug concentration of apixaban, subject C-03; Time 24 h; 1 mL of 2.5 mg/mL apixaban injection subcutaneously
property: concentration at 24 h (ng/mL)
Report the value in ng/mL with no unit label.

The measured concentration at 24 h associated with COc1ccc(-n2nc(C(N)=O)c3c2C(=O)N(c2ccc(N4CCCCC4=O)cc2)CC3)cc1 reads 15.8

* * *

experiment: Pharmacokinetics study, subcutaneous apixaban injection (Embodiment 4)
Type: in vivo, humans
settings: human, plasma, sc, 2.5 mg, plasma drug concentration of apixaban, subject C-02; Time 0.25 h; 1 mL of 2.5 mg/mL apixaban injection subcutaneously
property: concentration at 0.25 h (ng/mL)
Report the value in ng/mL with no unit label.

The measured concentration at 0.25 h associated with COc1ccc(-n2nc(C(N)=O)c3c2C(=O)N(c2ccc(N4CCCCC4=O)cc2)CC3)cc1 [apixaban, Apixaban] reads 5.36

* * *

experiment: Pharmacokinetics study, subcutaneous apixaban injection (Embodiment 4)
Format: in vivo, humans
settings: human, plasma, sc, 2.5 mg, plasma drug concentration of apixaban, Mean of three subjects; Time 10 h; 1 mL of 2.5 mg/mL apixaban injection subcutaneously
property: concentration at 10 h (ng/mL)
Report the value in ng/mL with no unit label.

The measured concentration at 10 h associated with COc1ccc(-n2nc(C(N)=O)c3c2C(=O)N(c2ccc(N4CCCCC4=O)cc2)CC3)cc1 reads 32.2

* * *

experiment: Pharmacokinetics study, subcutaneous apixaban injection (Embodiment 4)
Assay type: in vivo, humans
settings: human, plasma, sc, 2.5 mg, plasma drug concentration of apixaban, subject C-01; Time 6 h; 1 mL of 2.5 mg/mL apixaban injection subcutaneously
property: concentration at 6 h

The measured concentration at 6 h associated with COc1ccc(-n2nc(C(N)=O)c3c2C(=O)N(c2ccc(N4CCCCC4=O)cc2)CC3)cc1 reads 48.8 ng/mL

* * *

experiment: Pharmacokinetics study, subcutaneous apixaban injection (Embodiment 4)
Format: in vivo, humans
settings: human, plasma, sc, 2.5 mg, plasma drug concentration of apixaban, subject C-01; Time 10 h; 1 mL of 2.5 mg/mL apixaban injection subcutaneously
property: concentration at 10 h
# number then unit; no other words

The measured concentration at 10 h associated with COc1ccc(-n2nc(C(N)=O)c3c2C(=O)N(c2ccc(N4CCCCC4=O)cc2)CC3)cc1 reads 37.6 ng/mL

* * *

experiment: Pharmacokinetics study, subcutaneous apixaban injection (Embodiment 4)
Assay type: in vivo, humans
settings: human, plasma, sc, 2.5 mg, plasma drug concentration of apixaban, Mean of three subjects; Time 0.5 h; 1 mL of 2.5 mg/mL apixaban injection subcutaneously
property: concentration at 0.5 h (ng/mL)
Report the value in ng/mL with no unit label.

The measured concentration at 0.5 h associated with COc1ccc(-n2nc(C(N)=O)c3c2C(=O)N(c2ccc(N4CCCCC4=O)cc2)CC3)cc1 reads 14.5

* * *

experiment: Pharmacokinetics study, subcutaneous apixaban injection (Embodiment 4)
Type: in vivo, humans
settings: human, plasma, sc, 2.5 mg, plasma drug concentration of apixaban, subject C-01; Time 5 h; 1 mL of 2.5 mg/mL apixaban injection subcutaneously
property: concentration at 5 h (ng/mL)
Report the value in ng/mL with no unit label.

The measured concentration at 5 h associated with COc1ccc(-n2nc(C(N)=O)c3c2C(=O)N(c2ccc(N4CCCCC4=O)cc2)CC3)cc1 [apixaban, Apixaban] reads 52.4

* * *

experiment: Pharmacokinetics study, subcutaneous apixaban injection (Embodiment 4)
Assay type: in vivo, humans
settings: human, plasma, sc, 2.5 mg, plasma drug concentration of apixaban, Mean of three subjects; Time 5 h; 1 mL of 2.5 mg/mL apixaban injection subcutaneously
property: concentration at 5 h (ng/mL)
Report the value in ng/mL with no unit label.

The measured concentration at 5 h associated with COc1ccc(-n2nc(C(N)=O)c3c2C(=O)N(c2ccc(N4CCCCC4=O)cc2)CC3)cc1 reads 43.4

* * *

experiment: Pharmacokinetics study, subcutaneous apixaban injection (Embodiment 4)
Format: in vivo, humans
settings: human, plasma, sc, 2.5 mg, plasma drug concentration of apixaban, subject C-02; Time 6 h; 1 mL of 2.5 mg/mL apixaban injection subcutaneously
property: concentration at 6 h (ng/mL)
Report the value in ng/mL with no unit label.

The measured concentration at 6 h associated with COc1ccc(-n2nc(C(N)=O)c3c2C(=O)N(c2ccc(N4CCCCC4=O)cc2)CC3)cc1 [apixaban, Apixaban] reads 40.4

* * *

experiment: Pharmacokinetics study, subcutaneous apixaban injection (Embodiment 4)
Format: in vivo, humans
settings: human, plasma, sc, 2.5 mg, plasma drug concentration of apixaban, Mean of three subjects; Time 8 h; 1 mL of 2.5 mg/mL apixaban injection subcutaneously
property: concentration at 8 h (ng/mL)
Report the value in ng/mL with no unit label.

The measured concentration at 8 h associated with COc1ccc(-n2nc(C(N)=O)c3c2C(=O)N(c2ccc(N4CCCCC4=O)cc2)CC3)cc1 [apixaban, Apixaban] reads 39.3
